system_tested: T1, human PD-L1 (soluble protein of the kinetic measurements) (human, UniProt Q9NZQ7 19-238, limits assumed)
T1 construct: kept apart from the His-tag protein of the ELISA; also called hPD-L1
procedure_summary: BLI (Octet), antibody fixed on biosensor, PD-L1 in solution
attribute_measured: kon (M⁻¹ s⁻¹)
State the answer as a number, implicitly in M⁻¹ s⁻¹.

Consider the reported kon for these binders:
ME4.A12 anti-PD-L1 antibody (IgG form) (antibody, V domains shown) VH: QVQLVESGAEVKKPGSSVKVSCKASGGTFNNYAVSWVRQAPGQGLEWMGRIIPILGIANYAQTFQGRVTITADKSTTTAYMELSSLRSEDTAVYYCARSHWGYAHGAFDIWGQGTMVTVSS VL: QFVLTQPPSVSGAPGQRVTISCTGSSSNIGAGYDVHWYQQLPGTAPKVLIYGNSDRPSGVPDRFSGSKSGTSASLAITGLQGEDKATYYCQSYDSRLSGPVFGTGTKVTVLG	165000
ME4.A2 anti-PD-L1 antibody (IgG form) (antibody, V domains shown) VH: QVQLVESGAEVKKPGSSVKVSCKASGGTFNNYAVSWVRQAPGQGLEWMGRIIPILGIANYAQTFQGRVTITADKSTTTAYMELSSLRSEDTAVYYCARSSRGYAHGAFDIWGQGTMVTVSS VL: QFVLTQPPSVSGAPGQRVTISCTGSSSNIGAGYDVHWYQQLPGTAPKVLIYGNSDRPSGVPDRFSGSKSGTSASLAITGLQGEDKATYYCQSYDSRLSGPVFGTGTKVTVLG	174000

Per the record, ME4.B12 anti-PD-L1 antibody (IgG form) (antibody, V domains shown) VH: QVQLVESGAEVKKPGSSVKVSCKASGGTFNNYAVSWVRQAPGQGLEWMGRIIPILGIANYAQTFQGRVTITADKSTTTAYMELSSLRSEDTAVYYCARSSFGYSVGAFDIWGQGTMVTVSS VL: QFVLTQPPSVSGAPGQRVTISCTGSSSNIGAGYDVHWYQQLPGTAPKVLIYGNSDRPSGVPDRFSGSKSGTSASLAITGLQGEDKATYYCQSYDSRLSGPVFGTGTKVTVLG has kon of 164000
